Molecular target: SNAP-CB2R (Homo sapiens, UniProt P34972)
Sequence (P34972 whole entry): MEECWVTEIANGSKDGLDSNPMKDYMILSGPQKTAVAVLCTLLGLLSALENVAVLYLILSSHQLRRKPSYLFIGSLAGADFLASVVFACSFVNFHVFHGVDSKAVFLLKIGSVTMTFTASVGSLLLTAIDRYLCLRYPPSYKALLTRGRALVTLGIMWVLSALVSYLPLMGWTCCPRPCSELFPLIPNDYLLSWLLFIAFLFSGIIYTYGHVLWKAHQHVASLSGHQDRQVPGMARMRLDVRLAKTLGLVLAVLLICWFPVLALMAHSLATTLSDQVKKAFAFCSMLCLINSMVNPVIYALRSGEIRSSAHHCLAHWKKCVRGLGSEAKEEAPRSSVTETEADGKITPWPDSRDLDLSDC
measurement.kind: Ki (nM)
# number only, unit nM dropped from output

Before answering, review these 3 worked examples.
Cc1c(C(=O)NCc2cccnc2)nn(-c2ccc(Cl)cc2Cl)c1-c1ccc(Cl)cc1: 324
COC(=O)[C@@H](NC(=O)c1cn(Cc2ccc(F)cc2)c2ccccc12)C(C)C: 21.9
COC(=O)C(NC(=O)c1cn(CC2CCCCC2)c2ccccc12)C(C)(C)C (stereo not shown): 2.34

molecule CC(C)C(NC(=O)c1cn(Cc2ccc(F)cc2)c2ccccc12)C(N)=O (stereo not shown) , Ki observed: 36.3

Every entry's value here was drawn from paper PMC10745346.
